Measured pEC50 of individual entries
- measurement_target: T1, recombinant human TfR1 (transferrin receptor protein 1) (human, UniProt P02786 89-760)
- T1 construct: Recombinant protein in SPR and ELISA; they were assigned to this molecule; also called hTfR1; huTfR1
- T1 sequence (P02786 89-760 limits assumed): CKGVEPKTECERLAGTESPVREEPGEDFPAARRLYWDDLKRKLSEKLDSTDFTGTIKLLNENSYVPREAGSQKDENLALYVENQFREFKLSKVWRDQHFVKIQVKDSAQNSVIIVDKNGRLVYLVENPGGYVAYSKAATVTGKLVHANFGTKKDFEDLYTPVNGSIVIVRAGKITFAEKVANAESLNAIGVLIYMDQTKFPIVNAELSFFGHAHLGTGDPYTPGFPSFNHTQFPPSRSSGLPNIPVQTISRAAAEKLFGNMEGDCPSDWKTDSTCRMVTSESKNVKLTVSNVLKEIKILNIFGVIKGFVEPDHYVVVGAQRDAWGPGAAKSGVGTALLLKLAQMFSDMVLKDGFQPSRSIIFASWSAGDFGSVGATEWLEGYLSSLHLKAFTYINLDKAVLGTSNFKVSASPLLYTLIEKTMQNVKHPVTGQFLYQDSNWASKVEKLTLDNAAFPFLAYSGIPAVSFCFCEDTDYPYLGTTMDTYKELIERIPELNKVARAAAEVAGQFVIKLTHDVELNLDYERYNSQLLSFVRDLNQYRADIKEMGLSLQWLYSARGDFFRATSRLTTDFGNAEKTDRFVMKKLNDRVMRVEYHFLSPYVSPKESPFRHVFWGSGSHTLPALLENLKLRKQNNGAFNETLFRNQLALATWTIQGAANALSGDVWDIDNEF
- protocol: ELISA, recombinant TfR1 coated, unconjugated Fab (row 'Fab binding affinity ELISA')
pEC50: −log10 of the molar value.

# binder, pEC50
data = [
    ("humanized anti-TfR Fab 3A4 VH3 (N54S)/Vκ4 (Fab, V domains shown, also called 3A4 (VH3-N54S/Vk4)) VH: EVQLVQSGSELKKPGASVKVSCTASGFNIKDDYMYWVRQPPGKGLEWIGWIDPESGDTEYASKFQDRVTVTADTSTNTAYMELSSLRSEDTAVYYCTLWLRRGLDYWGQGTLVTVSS VL: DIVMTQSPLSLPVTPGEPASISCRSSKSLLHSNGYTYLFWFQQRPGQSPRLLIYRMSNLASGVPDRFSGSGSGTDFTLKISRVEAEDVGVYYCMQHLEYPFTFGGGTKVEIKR", 8.80),
    ("humanized anti-TfR Fab 3M12 VH3/Vκ2 (Fab, V domains shown, also called 3M12 (VH3/Vk2)) VH: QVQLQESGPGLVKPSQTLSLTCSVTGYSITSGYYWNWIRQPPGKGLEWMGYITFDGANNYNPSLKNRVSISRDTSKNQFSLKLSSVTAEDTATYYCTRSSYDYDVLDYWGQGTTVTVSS VL: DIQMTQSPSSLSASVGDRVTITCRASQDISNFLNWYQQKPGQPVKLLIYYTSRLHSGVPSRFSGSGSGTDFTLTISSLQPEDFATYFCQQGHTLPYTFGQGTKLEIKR", 9.10),
    ("humanized anti-TfR Fab 3M12 VH3/Vκ3 (Fab, V domains shown, also called 3M12 (VH3/Vk3)) VH: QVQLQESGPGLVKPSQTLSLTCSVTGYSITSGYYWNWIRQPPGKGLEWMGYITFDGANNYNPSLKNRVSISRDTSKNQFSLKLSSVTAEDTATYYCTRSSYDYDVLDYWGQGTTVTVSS VL: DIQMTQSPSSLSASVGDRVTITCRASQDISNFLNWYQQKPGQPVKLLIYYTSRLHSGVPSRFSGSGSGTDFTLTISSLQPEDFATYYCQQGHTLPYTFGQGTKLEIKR", 9.22),
]

Numbers sourced from patent US11844843.
